Hey, just so you know, these numbers are from ChEMBL document CHEMBL1201862.

system: HOP-18; assay: NCI tumour cell line growth inhibition, 48 h
Activity calls are given as the source filed them. No stated cut-off is given here; in the data, active = GI50 up to about 1.1 µM and inactive = higher.
Give your call using only these classes: active, inactive

// known answers, use as guide
{"molecule": "O=[N+]([O-])c1ccc2[nH]c3c(-c4ccccc4)nccc3c2c1", "category": "inactive"}
{"molecule": "Cc1c2ccncc2cc2c1sc1ccncc12", "category": "inactive"}
{"molecule": "CCC1(O)C(=O)OCc2c1cc1n(c2=O)Cc2cc3c(N)cccc3nc2-1 (stereo not given) [RS-9-Aminocamptothecin]", "category": "active"}
{"molecule": "O=C(NN1C(=O)CS(=O)(=O)C1c1ccc(Cl)c(Cl)c1)c1ccncc1 (stereo not given)", "category": "inactive"}

Turning now to a further record.
Recorded test outcome, item N#CC(C(=N/NC(N)=S)/C(=N\NC(N)=S)C(C#N)c1ccccc1)c1ccccc1 (stereo not given)
inactive

====

test system: MDA-N; experiment: NCI tumour cell line growth inhibition, 48 h
Calls of active or inactive are those of the source. Cut-off read from the data, not from the text of the source: active = GI50 up to about 1.1 µM and inactive = higher.
Give your call using only these classes: active, inactive

// known answers, use as guide
{"compound": "CC(Nc1cc(=O)n(C)c(=O)[nH]1)c1ccccc1 (configuration not stated)", "category": "inactive"}
{"compound": "O=C1C=C/C(=N\\N=C(c2ccccc2)c2ccccc2)O1", "category": "inactive"}
{"compound": "COc1cc2cc(C(=O)N3CC(CCl)c4c3cc(NC(=O)C(C)Nc3c([N+](=O)[O-])cc(C(=O)NCCN(C)C)cc3[N+](=O)[O-])c3ccccc43)[nH]c2c(OC)c1OC (configuration not stated)", "category": "active"}
{"compound": "COc1cc(/C=C2\\C(=O)N(c3cccc(Cl)c3)C(c3ccccc3)S2(=O)=O)cc(OC)c1OC (configuration not stated)", "category": "inactive"}
{"compound": "O=S(=O)(N1CCCCN(S(=O)(=O)C(F)(F)F)CCCN(S(=O)(=O)C(F)(F)F)CCCN(S(=O)(=O)C(F)(F)F)CCCCN(S(=O)(=O)C(F)(F)F)CCCN(S(=O)(=O)C(F)(F)F)CCC1)C(F)(F)F", "category": "inactive"}
{"compound": "O=C(/N=S(/NC(=O)c1ccccc1)C(Cl)(Cl)Cl)c1ccccc1 (configuration not stated)", "category": "inactive"}

Recorded test outcome, item CCCCCCCCCCCCCCCCCCNc1ccn(C2OC(CO)C(OP(=O)(O)OCC3CCC(n4ccc(N)nc4=O)O3)C2O)c(=O)n1 (configuration not stated)
inactive

Recorded test outcome, item C[C@H](c1ccccc1)n1c(N)c(-c2nc3ccccc3s2)c2ccc([N+](=O)[O-])cc2c1=O
inactive

Recorded test outcome, item NC(=S)N1N=C(c2ccccc2O)CC1c1ccccc1 (configuration not stated)
inactive

Recorded test outcome, item CC(C)(C)OC(=O)NCCC1CNc2ccccc21 (configuration not stated)
inactive

Recorded test outcome, item CCC(=O)Nc1ccc(NS(=O)(=O)c2ccc(Cl)cc2)cc1
inactive

====

GI50 reference
tested on: SR; experiment: NCI tumour cell line growth inhibition, 48 h
Activity calls are given as the source filed them. Rule as the data show it: active = GI50 up to about 1.1 µM and inactive = higher.

Sample records with GI50:
{"compound": "O=C(CSc1nnc(Cc2ccccc2)o1)Nc1ccc(Cl)cc1[N+](=O)[O-]", "observed_value": "26.2 µM (inactive)"}
{"compound": "CC(CC[C@@H](O)C(C)(C)O)C1[C@@H](O)CC2(C)C3CC(O)C4C(C)(C)[C@@H](OC5OC(CO)C(O)C(O)C5O)CC[C@@]45C[C@@]35CC[C@]12C (stereo not given in full)", "observed_value": "> 10 µM (inactive)"}
{"compound": "[O-]c1c2cc(-[n+]3c(-c4ccccc4)cc(-c4ccccc4)cc3-c3ccccc3)cc1COCCOCCOCCOCCOC2", "observed_value": "26.2 µM (inactive)"}
{"compound": "O=c1[nH]c(=O)c2c([nH]1)[nH]c1ccccc12", "observed_value": "> 100 µM (inactive)"}
{"compound": "O=C(NCCN1CCCCC1)c1cccc(I)c1", "observed_value": "> 100 µM (inactive)"}
{"compound": "Cc1[nH]c2c(C)cccc2c1C1Cc2ccccc2N1 (stereo not given)", "observed_value": "20.7 µM (inactive)"}
{"compound": "C=CCn1c(=S)sc2c(C(=O)OCC)c3c(C)cc(C)cn3c2c1=O", "observed_value": "> 100 µM (inactive)"}
{"compound": "CCOC(=O)C(CCCNC(=O)OC(C)(C)C)N(Cc1ccc(OC)cc1OC)C(=O)CC(=O)CP(=O)(OCC)OCC (stereo not given)", "observed_value": "42.7 µM (inactive)"}
{"compound": "Cc1noc(NS(=O)(=O)c2ccc(NC(=O)c3ccc4[nH]c5ccccc5c(=O)c4c3)cc2)c1C", "observed_value": "29.1 µM (inactive)"}

Entry under review: CCCCCC/C=C\CCCCCCCCCc1cccc(OC)c1O . Reported GI50?
> 10 µM (inactive)

====

GI50 reference
test system: OVCAR-8; assay: NCI tumour cell line growth inhibition, 48 h
Active and inactive are the calls of the source. Cut-off read from the data, not from the text of the source: active = GI50 up to about 1.1 µM and inactive = higher.

{"compound": "COC(=O)C1(C)C=C(Nc2ccccc2)C(=O)N1c1ccccc1 (centres undefined)", "observed_value": "> 100 µM (inactive)"}
{"compound": "CC(=O)C1CC[C@@H]2[C@H](CC[C@]3(C)[C@@H](O)CC[C@@H]23)[C@H]1C(=O)O (some centres undefined)", "observed_value": "> 100 µM (inactive)"}
{"compound": "COC(=O)C(NC(=O)C12CCC(C)(C(=O)O1)C2(C)C)c1cc(C(C)(C)C)c(O)c(C(C)(C)C)c1 (centres undefined)", "observed_value": "> 100 µM (inactive)"}
{"compound": "Cc1ccc(NC(=O)C23CC4CC(CC(C4)C2)C3)c(C(=O)NNC(=O)c2ccc(Cl)cc2)c1", "observed_value": "30.2 µM (inactive)"}
{"compound": "CCN(CC)CCOCCOCC1(c2ccc(Cl)c(Cl)c2)CCCCC1", "observed_value": "13.8 µM (inactive)"}
{"compound": "CCOc1ccc(NC(=O)CC2SC(Nc3ccc(Cl)cc3)=NC2=O)cc1 (centres undefined)", "observed_value": "49.7 µM (inactive)"}
{"compound": "[O-]c1c2cc(-[n+]3c(-c4ccccc4)cc(-c4ccccc4)cc3-c3ccccc3)cc1COCCOCCOCCOCCOC2", "observed_value": "31.5 µM (inactive)"}
{"compound": "CC(Cn1c2c3ccccc3ccc2c2oc(=O)c3ccccc3c21)N(C)C (centres undefined)", "observed_value": "> 100 µM (inactive)"}

Entry under review: C=CCC1(C)CCCCC1(O)C[S+]([O-])c1ccccc1 (centres undefined) . Reported GI50?
> 100 µM (inactive)

====

tested on: UACC-257; assay: NCI tumour cell line growth inhibition, 48 h
Active and inactive are the calls of the source. Cut-off read from the data, not from the text of the source: active = GI50 up to about 1.1 µM and inactive = higher.
recorded_metric: GI50

Sample records with GI50:
{"compound": "COc1cc2ccnc3c2c(c1O)N(C)C=C3", "observed_value": "15.6 µM (inactive)"}
{"compound": "CC(=O)OC(OC(C)=O)n1cc(C=O)c2ccccc21", "observed_value": "> 100 µM (inactive)"}
{"compound": "O=C(Nc1ccc(Cl)cc1)NS(=O)(=O)c1coc2ccccc2c1=O", "observed_value": "> 10 µM (inactive)"}

Entry under review: Cc1ccc(S(=O)(=O)c2[nH]cc(/C(=C\C3CCCCC3)[N+](=O)[O-])c2C2CCCCC2)cc1 . Reported GI50?
0.393 µM (active)

Entry under review: CCn1c2ccccc2c2c(-c3ccccc3)cc3c(c21)C(=O)N(c1ccccc1)C3=O . Reported GI50?
> 100 µM (inactive)

Entry under review: O=c1[nH]c(=O)n(C2CC(O)C(CO)O2)cc1C(OCC(F)(F)F)OCC(F)(F)F (stereo unspecified) . Reported GI50?
> 100 µM (inactive)

====

system: TK-10; assay: NCI tumour cell line growth inhibition, 48 h
The source made the active and inactive calls. Cut-off read from the data, not from the text of the source: active = GI50 up to about 1.1 µM and inactive = higher. Non-standard residues stand in square brackets, D forms with d. Residues, ends and D or L forms follow the SMILES beside them. Ava = NCCCCC(=O)O; Mpa = O=C(O)CCS
recorded_metric: GI50

Entry under review: CN1CCc2ccccc2C(C(=O)c2ccc3c(c2)OCO3)C1=O (stereo not drawn) . Reported GI50?
> 100 µM (inactive)

Entry under review: CC(NC(=O)CCS)C(=O)NC(C)C(=O)NC(Cc1c[nH]c2ccccc12)C(=O)NC(Cc1c[nH]cn1)C(=O)NC(CO)C(=O)NC(Cc1c[nH]c2ccccc12)C(=O)NCCCCC(=O)NC(C)C(=O)NC(CCC(N)=O)C(=O)NC(CCCCN)C(=O)NC(C)C(=O)NC(CCCNC(=N)N)C(=O)NC(CCCCN)C(N)=O (stereo not drawn) ([Mpa]AAWHSW[Ava]AQKARK-NH2; configuration not given here) . Reported GI50?
> 100 µM (inactive)

Entry under review: CC(C)(C)n1c(=O)[nH]c(=O)n1C(C)(C)C . Reported GI50?
> 100 µM (inactive)
